assay: MTS-PMS cytotoxicity bioassay, MDA-MB 231; conditions: human, MDA-MB 231 breast cancer cells
measurement label: cytotoxicity at 100 μm (%)
Field: numeric (%). Do not append units.

Find the measured cytotoxicity at 100 μm of COc1cccc2c1C(=O)c1c(O)c3c(c(O)c1C2=O)C[C@@](O)(C(=O)CO)C[C@@H]3O[C@H]1C[C@H](N)[C@H](O)[C@H](C)O1 and report it.
45

Reference for the values: patent US20240383950A1
